Measured inhibition at 1 µM, listed per entry.
TESTED_TARGET: S. aureus GyrB ATPase (Staphylococcus aureus, UniProt P0A0K8)
Sequence (P0A0K8 whole entry): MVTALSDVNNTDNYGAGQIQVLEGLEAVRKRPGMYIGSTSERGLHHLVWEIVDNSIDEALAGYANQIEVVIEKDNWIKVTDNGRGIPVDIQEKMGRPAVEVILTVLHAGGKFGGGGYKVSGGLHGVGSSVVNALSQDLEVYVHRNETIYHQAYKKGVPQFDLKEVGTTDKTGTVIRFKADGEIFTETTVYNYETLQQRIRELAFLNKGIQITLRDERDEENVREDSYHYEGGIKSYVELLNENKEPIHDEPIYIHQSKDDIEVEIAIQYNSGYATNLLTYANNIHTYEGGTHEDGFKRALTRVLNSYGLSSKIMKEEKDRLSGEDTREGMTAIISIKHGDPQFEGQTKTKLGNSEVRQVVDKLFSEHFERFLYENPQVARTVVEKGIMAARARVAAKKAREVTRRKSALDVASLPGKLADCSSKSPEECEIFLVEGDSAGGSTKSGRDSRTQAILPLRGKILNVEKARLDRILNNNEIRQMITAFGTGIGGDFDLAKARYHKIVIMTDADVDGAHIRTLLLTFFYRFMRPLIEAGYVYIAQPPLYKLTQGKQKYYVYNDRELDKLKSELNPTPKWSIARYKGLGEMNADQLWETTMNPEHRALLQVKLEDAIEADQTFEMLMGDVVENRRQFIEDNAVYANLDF
Sequence (P0AES4 whole entry, further chain): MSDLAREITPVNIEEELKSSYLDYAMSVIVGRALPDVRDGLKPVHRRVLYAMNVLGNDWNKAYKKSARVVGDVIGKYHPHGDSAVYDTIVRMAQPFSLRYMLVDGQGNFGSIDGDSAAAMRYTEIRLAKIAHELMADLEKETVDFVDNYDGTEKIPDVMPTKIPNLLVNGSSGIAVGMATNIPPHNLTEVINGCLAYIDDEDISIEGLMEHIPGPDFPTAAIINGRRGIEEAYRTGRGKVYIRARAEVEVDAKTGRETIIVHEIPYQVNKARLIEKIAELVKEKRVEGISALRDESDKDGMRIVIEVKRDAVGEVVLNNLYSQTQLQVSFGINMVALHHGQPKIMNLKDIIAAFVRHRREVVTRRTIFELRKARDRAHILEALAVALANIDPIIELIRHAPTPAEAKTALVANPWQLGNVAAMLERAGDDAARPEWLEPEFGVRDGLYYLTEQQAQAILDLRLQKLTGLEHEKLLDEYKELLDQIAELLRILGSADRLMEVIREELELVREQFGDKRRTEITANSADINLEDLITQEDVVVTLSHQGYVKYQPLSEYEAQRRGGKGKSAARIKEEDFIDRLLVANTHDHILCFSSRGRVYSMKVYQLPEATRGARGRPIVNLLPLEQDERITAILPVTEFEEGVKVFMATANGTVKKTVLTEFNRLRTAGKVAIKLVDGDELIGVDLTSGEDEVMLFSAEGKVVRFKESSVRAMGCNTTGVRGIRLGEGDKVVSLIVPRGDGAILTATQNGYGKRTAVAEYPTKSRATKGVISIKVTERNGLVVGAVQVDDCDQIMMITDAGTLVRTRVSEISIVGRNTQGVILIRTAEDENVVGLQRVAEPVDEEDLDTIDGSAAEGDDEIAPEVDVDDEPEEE
PROCEDURE_DETAILS: S. aureus (SAU) GyrB ATPase inhibition, malachite green phosphate detection (E. coli GyrA + S. aureus GyrB)
Format: biochemical
CONDITIONS_USED: compound concentration of 1.0 μM unless otherwise noted; average value where assay was carried out more than once; read-out: S. aureus (SAU) GyrB ATPase % Inhibition
Quick note: give the figure in %, leave out the unit.

Solved cases below.
- SMILES_REPRESENTATION: "CCNC(=O)Nc1cc(-c2nc(C(F)(F)F)cs2)c(-c2cnc(OC)nc2)cn1"
  READOUT_LABEL: "inhibition at 1 µM"
  NUMERIC_READOUT: 103
- SMILES_REPRESENTATION: "CCNC(=O)Nc1cc(-c2nc(C(F)(F)F)cs2)c(-c2cncc(C3=NNC(=O)CO3)c2)cn1"
  READOUT_LABEL: "inhibition at 1 µM"
  NUMERIC_READOUT: 96
- SMILES_REPRESENTATION: "CCNC(=O)Nc1cc(-c2nc(C(F)(F)F)cs2)c(-c2cc(-c3n[nH]c(=O)o3)cnc2OC2CCOCC2)cn1"
  READOUT_LABEL: "inhibition at 1 µM"
  NUMERIC_READOUT: 100
- SMILES_REPRESENTATION: "CCNC(=O)Nc1cc(-c2nc(C(F)(F)F)cs2)c(-c2cc(-c3nnc(C)o3)cnc2OCC2CC2)cn1"
  READOUT_LABEL: "inhibition at 1 µM"
  NUMERIC_READOUT: 105
- SMILES_REPRESENTATION: "CCNC(=O)Nc1cc(-c2nc(C(F)(F)F)c(CNCCOC)s2)c(-c2cncc(-c3nnc(C)o3)c2)cn1"
  READOUT_LABEL: "inhibition at 1 µM"
  NUMERIC_READOUT: 97
- SMILES_REPRESENTATION: "CCNC(=O)Nc1cc(-c2nc(C(F)(F)F)cs2)c(-c2cc(OCC)nc(-c3nnc(C)o3)c2)cn1"
  READOUT_LABEL: "inhibition at 1 µM"
  NUMERIC_READOUT: 100

CCNC(=O)Nc1cc(-c2nc(C(F)(F)F)cs2)c(-c2cncc(-c3nnc(C4CC4)o3)c2)cn1 yielded inhibition at 1 µM of 72

----------
inhibition at 1 µM: recorded values
TESTED_TARGET: S. aureus GyrB ATPase (Staphylococcus aureus, UniProt P0A0K8)
PROCEDURE_DETAILS: S. aureus (SAU) GyrB ATPase inhibition, malachite green phosphate detection (E. coli GyrA + S. aureus GyrB)
Assay type: biochemical
CONDITIONS_USED: compound concentration of 1.0 μM unless otherwise noted; average value where assay was carried out more than once; read-out: S. aureus (SAU) GyrB ATPase % Inhibition
Description: Compounds were tested for inhibition of GyrB ATPase activity using an ammonium molybdate/malachite green-based phosphate detection assay (Lanzetta, P. A., L. J. Alvarez, P. S. Reinach, and O. A. Candia, 1979, 100: 95-97). […] Compound potency was based on IC50 measurements determined from reactions performed in the presence of 10 different compound concentrations.
Report the value in % with no unit label.

A selection of reference data follows.
- COMPOUND: "CCNC(=O)Nc1cc(-c2nc(-c3cnn(C)c3)cs2)c(-c2cc(-c3n[nH]c(=O)o3)cnc2OC2CCOCC2)cn1 [Example 222]"
  ENDPOINT_UNIT: "%"
  NUMERIC_READOUT: 97
- COMPOUND: "CCNC(=O)Nc1cc(-c2nc(C(F)(F)F)cs2)c(-c2cncc(-c3nnc(C(C)(C)O)o3)c2)cn1 [Example 263]"
  ENDPOINT_UNIT: "%"
  NUMERIC_READOUT: 100
- COMPOUND: "CCNC(=O)Nc1cc(-c2nc(C(F)(F)F)cs2)c(-c2cncc(-c3nnc(N4CCOCC4)o3)c2)cn1 [Example 154]"
  ENDPOINT_UNIT: "%"
  NUMERIC_READOUT: 105

Entry CCNC(=O)Nc1cc(-c2nc(C(F)(F)F)cs2)c(-c2cncc(-c3nnc(C(F)(F)F)[nH]3)c2)cn1 [Example 257] — recorded inhibition at 1 µM = 102

// inhibition at 1 µM value for CCNC(=O)Nc1cc(-c2nc(C(F)(F)F)cs2)c(-c2cncc(-c3nnc([C@@H](N)C(C)C)o3)c2)cn1 [Example 183] : 96

get_value(item= CCNC(=O)Nc1cc(-c2nc(C(F)(F)F)cs2)c(-c2ncc(-c3n[nH]c(=O)o3)s2)cn1 [Example 9] , readout=inhibition at 1 µM) returns 106

CCNC(=O)Nc1cc(-c2cnn(CC(C)C)c2)c(-c2cncc(-c3n[nH]c(=O)o3)c2)cn1 [Example 107] yielded inhibition at 1 µM of 97
